B1: FAM164C (parent)
chain: YPHCTGISQQDPESDSQGQGNGLF

# Variants of: B1
# PROTOCOL TEXT: protein stability index of a GFP-peptide fusion (GPS, HEK-293T) (PSI 1-6); higher = more stable;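 note: lentivirally expressed fusions sorted by FACS into six bins by GFP to DsRed ratio, PSI derived from sequencing read proportions per bin multiplied by bin number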
# EXPERIMENTAL SETUP: c terminus: a fixed tail appended
Measured protein stability index, listed per entry.
Would you mind answering with just the numeric figure?

Q: Input G20C , output reported protein stability index.
A: 3.57

Q: Input S16I , output reported protein stability index.
A: 3.1

Q: Input S16V , output reported protein stability index.
A: 3.69

Q: Input S14L , output reported protein stability index.
A: 3.77

Q: Input Q10E , output reported protein stability index.
A: 3.87

Q: Input D15V , output reported protein stability index.
A: 3.51

Q: Input G20F , output reported protein stability index.
A: 2.56

Q: Input E13A , output reported protein stability index.
A: 3.46

Q: Input I7V , output reported protein stability index.
A: 3.82
